B1: MLL5 (parent)
chain: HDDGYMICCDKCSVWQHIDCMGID

- Variants of: B1
- Assay Remarks: protein stability index of a GFP-peptide fusion (GPS, HEK-293T) (PSI 1-6); higher = more stable;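 further: lentivirally expressed fusions sorted by FACS into six bins by GFP to DsRed ratio, PSI derived from sequencing read proportions per bin multiplied by bin number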
- Test Settings: c terminus: a fixed tail appended
Reported protein stability index by item:
Reply with just the number.

Given the entry K11P , report its measured protein stability index.
2.4

Given the entry I18D , report its measured protein stability index.
3.71

Given the entry D2H , report its measured protein stability index.
2.87

Given the entry W15T , report its measured protein stability index.
3.7

Given the entry G4V , report its measured protein stability index.
2.1

Data credit: the supplement of paper PMC10567573
